EXPERIMENT_SUMMARY: NCI Yeast Anticancer Drug Screen. Data for the rad50 strain (AID 155);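 further: 0% = growth of vehicle-only cultures of the same strain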
ASSAY_CONTEXT: S. cerevisiae rad50 strain growth inhibition; at 50.0 µM
Compounds without any hit were thinned out: in the full panel of roughly 79,000, 15% have a hit. Calls of active or inactive are those of the source. No stated cut-off is given here; in the data, active means growth inhibition above about 70%; inactive means the rest.
Answer with one of the outcomes given here: active, inactive

GET /call?item= Cc1ccc2nc(C[n+]3cccc4ccccc43)ccc2c1 returns the recorded outcome of this test.
active

GET /call?item= COC1=C(OC)C(=O)C(SCc2ccco2)=CC1=O returns the recorded outcome of this test.
inactive

GET /call?item= CCCCCCCCCCCCCCSC(=N)N returns the recorded outcome of this test.
inactive

====

EXPERIMENT_SUMMARY: NCI Yeast Anticancer Drug Screen. Data for the sgs1 mgt1 strain (AID 161);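 further: 0% = growth of cultures given vehicle only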
ASSAY_CONTEXT: S. cerevisiae sgs1 mgt1 strain, at 50.0 µM
Description: Growth inhibition of yeast strains with defined genetic alterations is measured as a screen for potential anti-cancer activity. Selected strains with alterations in DNA damage repair or cell cycle control were exposed to compounds and growth inhibition was measured relative to vehicle treated controls. The strain used in this assay is sgs1 mgt1
This is part of a sample that, as a whole, favours compounds with a hit. Of some 79,000 tested, about 15% had one in any assay. Active and inactive are the calls of the source. No stated cut-off is given here; in the data, active means growth inhibition above about 70%; inactive means the rest.
Answer with one of the outcomes given here: active, inactive

COc1ccc(C(=O)C(CN2CCOCC2)CN2CCOCC2)cc1 | active
O=C(O)CCCCCCC(=O)CCl | inactive
CCCCN(CCCC)/N=C\C1=C2NC(=O)/C(C)=C\C=C/C(OC)C(OC(N)=O)/C(C)=C/C(C)C(O)C(OC)CC(C)CC(=C(OC)C1=O)C2=O (stereo unspecified) | inactive

GET /call?item= Cc1ccc(C)c([N+](=O)[O-])c1 returns the recorded outcome of this test.
inactive

====

EXPERIMENT_SUMMARY: NCI Yeast Anticancer Drug Screen. Data for the mlh1 rad18 strain (AID 175)
ASSAY_CONTEXT: S. cerevisiae mlh1 rad18 strain growth inhibition; at 5.0 µM (retest, dose inferred, filed as 0.5); active compounds read high
The panel holds about 79,000 compounds, 15% with a hit somewhere; the sample as a whole holds those more often.
RECORDED_METRIC: growth inhibition (%)
All answers are understood in %, so give the number only.

N=c1scc(-c2ccccc2)n1/N=C/c1cccnc1 | -14

Entry Clc1ccc(CN2COc3c(ccc4ccccc34)C2)cc1 , growth inhibition reported as 1

Entry CN1C=C(C#N)CCC1Sc1ccc(Cl)cc1 (configuration not stated) , growth inhibition reported as 22

Entry CNC(=S)/N=c1/sc([N+](=O)[O-])c(C)n1C , growth inhibition reported as -20

Entry COC(=O)C1=C(/C=C/C(C)=O)NC(C)=C(C(=O)OC(C)C)C1c1ccccc1Cl (configuration not stated) , growth inhibition reported as 34

Entry CCc1ccc(CC(=O)O)c2ccc3c(C)ccc(C)c3c12 , growth inhibition reported as 8

Entry CCC(=O)C(C(=O)CC)c1c(OC(=O)c2ccccc2)ccc(O)c1C(=O)OC , growth inhibition reported as -3

Entry COc1cc(C(c2cc3c(cc2OC(C)=O)OCO3)C(C(C)=O)C(C)=O)cc(OC)c1OC(C)=O (configuration not stated) , growth inhibition reported as 3

Entry COC(=O)CCCCCCCCCCC(=O)O , growth inhibition reported as -2

Entry CC(C)C(=O)/C=C/c1ccc(Cl)cc1Cl , growth inhibition reported as -5

Entry COc1cc2c(cc1OC)-c1nc(N)sc1CC2 , growth inhibition reported as -1

Entry N#Cc1ccc(C(F)(F)F)cc1[N+](=O)[O-] , growth inhibition reported as 37

====

EXPERIMENT_SUMMARY: NCI Yeast Anticancer Drug Screen. Data for the bub3 strain (AID 167)
ASSAY_CONTEXT: S. cerevisiae bub3 mutant strain, at 50.0 µM, active compounds read high
Compounds without any hit were thinned out: in the full panel of roughly 79,000, 15% have a hit.
RECORDED_METRIC: growth inhibition (%)
All answers are understood in %, so give the number only.

CCCCCCSc1nn(CCC#N)c(=O)[nH]c1=O | 74.8
CC(=O)NC1=C(Sc2ccc(C)cc2)C(=O)c2ccccc2C1=O | 42
CC1=C(CO)C(=O)O[C@@H]([C@@H](C)[C@H]2CC[C@H]3[C@@H]4C[C@@H](O)C5=CC=CC(=O)[C@]5(C)[C@H]4CC[C@]23C)C1 | 60.6
O=C(CC1CCCC(CC(=O)c2ccccc2)N1CCc1ccccc1)c1ccccc1 (stereo not drawn) | 89.7
O=C(O)CCCCCCCCCC[S+](CCO)CCO | 37.4
C/C(CCC(=O)O)=N/Nc1ccc(C(=O)O)cc1 | 31.4
O=C(Cc1nc2ccc([N+](=O)[O-])cc2[nH]c1=O)C(=O)Nc1cc(Cl)c(Cl)cc1Cl | 23.9
Nc1ncnc2nc[nH]c12.[Ag] | 99.5
O=c1cc(-c2ccccc2)oc(-c2ccccc2)c1 | 20
CCOc1ccccc1C(=O)Oc1cccc(C)c1 | 11.8

Entry C=C1C[C@H](O)[C@H]2C(C[Se]c3ccccc3)C(=O)O[C@@H]2[C@H]2[C@H](C)C(O)C[C@@H]12 (stereo partly drawn) , growth inhibition reported as 21.8

Entry Clc1ccc(CN2COc3c(cc(Cl)c4cccnc34)C2)cc1 , growth inhibition reported as 99.2

Entry C=C1C(=O)C23C(O)C1CC[C@H]2C12CCCC(C)(COC(C)=O)[C@H]1[C@H](O)[C@]3(O)OC2 (stereo partly drawn) , growth inhibition reported as 90

====

EXPERIMENT_SUMMARY: NCI Yeast Anticancer Drug Screen. Data for the sgs1 mgt1 strain (AID 161);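 further: 0% = growth of cultures given vehicle only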
ASSAY_CONTEXT: S. cerevisiae sgs1 mgt1 strain, at 50.0 µM, active compounds read high
This is part of a sample that, as a whole, favours compounds with a hit. Of some 79,000 tested, about 15% had one in any assay.
Everything with growth inhibition lower than 80% is F; everything else, including exactly 80%, is T.

Solved entries:
O=C1NC(=Nc2ccccc2)C(=Nc2ccccc2)N1c1ccccc1 | T
CC(CN(C)C)C(/C=C/c1ccccc1)=N\NC(=O)c1ccccc1 (configuration not stated) | F
CN(C)CCCNc1cc(O)c2c(c1O)C(=O)c1ccccc1C2=O | T
ClCc1nc2ccccc2c2ccccc12 | F
CC(C)CCC(C)(C)c1cc(O)ccc1O | F
CCc1cc(C)cc(NC(=O)OC2CCCCC2C)c1 (configuration not stated) | T
O=Cc1ccc(/C=N\Nc2ccccc2)cc1 | F
NN=C(CC(O)(C(F)(F)Cl)C(F)(F)Cl)CC(O)(C(F)(F)Cl)C(F)(F)Cl | T

Now examine the next entry.
Given CCOc1ccc2c(c1)nc1cc(Cl)ccc1[n+]2C , state whether its growth inhibition is at least 80%.
T

====

EXPERIMENT_SUMMARY: NCI Yeast Anticancer Drug Screen. Data for the cln2 rad14 strain (AID 165);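 further: 0% = growth equal to vehicle treated cultures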
ASSAY_CONTEXT: S. cerevisiae cln2 rad14 strain, at 50.0 µM
About 79,000 compounds went through this panel and 15% of them were active in at least one assay; those are over-represented in the sample as a whole. The source made the active and inactive calls. Cut-off read from the data, not from the text of the source: active = growth inhibition above about 70%; inactive = the rest.
Answer with one of the outcomes given here: TRUE = active, FALSE = inactive

Solved entries:
OC(CC(CC(O)(C(F)(F)Cl)C(F)(F)Cl)=NNc1ccccc1)(C(F)(F)Cl)C(F)(F)Cl | TRUE
c1ccc([Si](C[CH2][Sn]([c]2ccccc2)([c]2ccccc2)[c]2ccccc2)(c2ccccc2)c2ccc([Si](C[CH2][Sn]([c]3ccccc3)([c]3ccccc3)[c]3ccccc3)(c3ccccc3)c3ccccc3)cc2)cc1 | TRUE
c1ccc(N=c2sc3ccccc3sc2=Nc2ccccc2)cc1 | FALSE
Nc1ccc(C(=O)Nc2ccc(C(=O)Nc3ccc(/C=C/c4ccc(NC(=O)c5ccc(N)cc5)cc4S(=O)(=O)O)c(S(=O)(=O)O)c3)cc2)cc1 | FALSE
CSc1nc(COC(=O)NC(C)C)c(COC(=O)NC(C)C)n1-c1ccccc1 | FALSE
c1ccc2c(c1)CCN2CCc1c[nH]c2ccccc12 | TRUE

GET /call?item= C=C1C[C@H](O)[C@H]2C(C[Se]c3ccccc3)C(=O)O[C@@H]2[C@H]2[C@H](C)C(O)C[C@@H]12 (stereo not given in full) returns the recorded outcome of this test.
FALSE

GET /call?item= CNC(=O)N(C)/N=C/c1ccc([N+](=O)[O-])o1 returns the recorded outcome of this test.
FALSE

====

EXPERIMENT_SUMMARY: NCI Yeast Anticancer Drug Screen. Data for the mlh1 rad18 strain (AID 175)
ASSAY_CONTEXT: S. cerevisiae mlh1 rad18 strain growth inhibition; at 50.0 µM (retest, dose inferred, filed as 5.0)
Procedure: Growth inhibition of yeast strains with defined genetic alterations is measured as a screen for potential anti-cancer activity. Selected strains with alterations in DNA damage repair or cell cycle control were exposed to compounds and growth inhibition was measured relative to vehicle treated controls. The strain used in this assay is mlh1 rad18
Compounds without any hit were thinned out: in the full panel of roughly 79,000, 15% have a hit. The source made the active and inactive calls. Rule as the data show it: active = growth inhibition above about 70%; inactive = the rest.
Answer with one of the outcomes given here: active, inactive

CC(C)c1cc(C(=O)[O-])c(O)c(C(C)C)c1.CC(C)c1cc(C(=O)[O-])c(O)c(C(C)C)c1.CC(C)c1cc(C(=O)[O-])c(O)c(C(C)C)c1.CC(C)c1cc(C(=O)[O-])c(O)c(C(C)C)c1.CC(C)c1cc(C(=O)[O-])c(O)c(C(C)C)c1.CC(C)c1cc(C(=O)[O-])c(O)c(C(C)C)c1.[Cu+2].[Mn+2].[Mn+2] | inactive
BrCc1ccccc1C[P+](c1ccccc1)(c1ccccc1)c1ccccc1 | active
Cc1ccnc(NCCN(C)C)c1 | inactive
O=C(CC(O)c1ccccc1)Sc1ccccc1 (centres undefined) | inactive
c1ccc2cc3c(ccc4cccc[n+]43)cc2c1 | inactive
CCN1/C(=C/C(C)=C/c2sc3ccccc3[n+]2CC)Sc2ccccc21 | active

GET /call?item= N#CCc1nc(Cl)cc(Cl)n1 returns the recorded outcome of this test.
inactive

GET /call?item= CN(CCO)CCn1cnc2c1c(=O)n(C)c(=O)n2C returns the recorded outcome of this test.
inactive

GET /call?item= CCOC(=O)c1ccc(NC(=O)CCl)cc1 returns the recorded outcome of this test.
active
